- system-name: T1, CAPRIN-1 protein expressed on the membrane surface of human cancer cells (human, UniProt Q14444 2-709)
- T1 sequence (looked up): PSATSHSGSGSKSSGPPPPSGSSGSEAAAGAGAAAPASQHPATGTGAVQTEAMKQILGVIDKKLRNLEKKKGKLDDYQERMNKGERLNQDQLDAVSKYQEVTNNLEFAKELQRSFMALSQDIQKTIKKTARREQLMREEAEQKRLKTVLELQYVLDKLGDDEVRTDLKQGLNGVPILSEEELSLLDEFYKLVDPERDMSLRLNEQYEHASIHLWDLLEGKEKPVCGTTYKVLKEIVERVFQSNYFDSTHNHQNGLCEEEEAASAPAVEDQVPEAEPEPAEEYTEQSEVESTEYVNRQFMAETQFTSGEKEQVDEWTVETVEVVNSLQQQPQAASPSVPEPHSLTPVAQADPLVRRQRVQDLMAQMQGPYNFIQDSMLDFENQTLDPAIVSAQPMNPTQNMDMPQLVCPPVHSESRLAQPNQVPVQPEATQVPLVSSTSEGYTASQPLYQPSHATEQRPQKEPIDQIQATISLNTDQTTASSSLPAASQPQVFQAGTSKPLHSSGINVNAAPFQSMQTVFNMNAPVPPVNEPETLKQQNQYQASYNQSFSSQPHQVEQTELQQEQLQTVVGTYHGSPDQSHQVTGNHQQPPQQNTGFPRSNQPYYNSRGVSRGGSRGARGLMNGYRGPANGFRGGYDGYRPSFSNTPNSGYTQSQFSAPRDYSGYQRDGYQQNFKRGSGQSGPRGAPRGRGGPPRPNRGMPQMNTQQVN
- assay: cell-based or functional assay
test-readout: ADCC cytotoxic activity (51Cr release) on NCI-H2452

humanized antibody #1 (antibody, V domains shown) VH: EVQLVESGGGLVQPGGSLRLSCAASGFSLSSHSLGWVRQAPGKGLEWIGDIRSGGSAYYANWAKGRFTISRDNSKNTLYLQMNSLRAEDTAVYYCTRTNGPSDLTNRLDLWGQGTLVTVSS VL: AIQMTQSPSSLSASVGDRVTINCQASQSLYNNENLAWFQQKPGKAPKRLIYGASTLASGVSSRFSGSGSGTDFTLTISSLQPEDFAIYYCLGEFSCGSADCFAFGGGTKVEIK
≥ 31%
humanized antibody #10 (antibody, V domains shown) VH: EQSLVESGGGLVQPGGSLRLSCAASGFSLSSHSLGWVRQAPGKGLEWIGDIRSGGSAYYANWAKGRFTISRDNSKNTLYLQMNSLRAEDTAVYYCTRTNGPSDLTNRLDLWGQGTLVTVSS VL: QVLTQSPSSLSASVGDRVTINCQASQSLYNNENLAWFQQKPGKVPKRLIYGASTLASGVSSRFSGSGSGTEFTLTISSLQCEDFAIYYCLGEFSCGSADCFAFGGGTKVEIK
≥ 35%

Kindly consider the entry below.
Request: ADCC cytotoxic activity (51Cr release) on NCI-H2452 lookup needed for humanized antibody #4 (antibody, V domains shown) VH: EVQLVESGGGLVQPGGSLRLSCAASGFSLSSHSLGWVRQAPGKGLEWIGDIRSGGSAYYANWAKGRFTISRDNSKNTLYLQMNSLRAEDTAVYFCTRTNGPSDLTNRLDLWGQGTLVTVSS VL: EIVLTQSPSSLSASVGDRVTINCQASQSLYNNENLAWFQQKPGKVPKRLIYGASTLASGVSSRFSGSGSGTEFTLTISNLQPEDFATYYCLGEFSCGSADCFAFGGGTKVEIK , thanks.
Result: ≥ 39%

Recorded values, source patent US20160297889A1.
